Below: a set of entries, each annotated with reported Km.
TESTED_SYSTEM: hVACVase (Homo sapiens, UniProt Q86WA6)
Sequence (Q86WA6 38-291): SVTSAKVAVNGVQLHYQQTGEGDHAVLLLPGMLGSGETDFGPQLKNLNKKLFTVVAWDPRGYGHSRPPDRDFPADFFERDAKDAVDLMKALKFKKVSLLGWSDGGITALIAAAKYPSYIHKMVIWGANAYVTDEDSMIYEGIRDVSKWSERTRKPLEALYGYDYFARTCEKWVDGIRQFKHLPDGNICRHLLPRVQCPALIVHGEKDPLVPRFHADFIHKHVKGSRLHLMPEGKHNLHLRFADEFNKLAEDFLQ
MEASUREMENT_DESCRIPTION: hVACVase-mediated hydrolysis
TEST_SETTINGS: 50 mM HEPES pH 7.4, 37°C; mean ± SEM; Phe-OMe n=2, others n=3; 6×His-tagged hVACVase for Val-3-APG
MEASURED_QUANTITY: Km (µM)

>  <COMPOUND>
CC(C)[C@H](N)C(=O)OCc1ccccc1.Cl [Val-OBn, L-valine benzyl ester hydrochloride]

>  <VALUE_OBSERVED>
60

$$$$
>  <COMPOUND>
CCOC(=O)[C@@H](N)Cc1ccccc1.Cl

>  <VALUE_OBSERVED>
6700

$$$$
>  <COMPOUND>
Cl.N[C@@H](Cc1ccccc1)C(=O)OCc1ccccc1

>  <VALUE_OBSERVED>
99

$$$$
>  <COMPOUND>
Br.CC(C)[C@H](N)C(=O)OCc1ccc([N+](=O)[O-])cc1

>  <VALUE_OBSERVED>
14

$$$$

* * *

TESTED_SYSTEM: UniProt:Q86WA6
MEASUREMENT_DESCRIPTION: hVACVase-mediated hydrolysis
TEST_SETTINGS: 50 mM HEPES pH 7.4, 37°C; mean ± SEM; Phe-OMe n=2, others n=3; 6×His-tagged hVACVase for Val-3-APG

>  <COMPOUND>
CCOC(=O)[C@@H](N)Cc1ccccc1.Cl [Phe-OEt]

>  <Vmax / nmol/min/µg>
193

$$$$
>  <COMPOUND>
Cl.N[C@@H](Cc1ccccc1)C(=O)OCc1ccccc1 [Phe-OBn]

>  <Vmax / nmol/min/µg>
822

$$$$
>  <COMPOUND>
CC(C)[C@H](N)C(=O)OCc1ccccc1.Cl [Val-OBn, L-valine benzyl ester hydrochloride]

>  <Vmax / nmol/min/µg>
125

$$$$
>  <COMPOUND>
Br.CC(C)[C@H](N)C(=O)OCc1ccc([N+](=O)[O-])cc1 [valine p-nitrobenzyl ester]

>  <Vmax / nmol/min/µg>
272

$$$$

* * *

Below: a set of entries, each annotated with reported t1/2 (estimated half-life).
MEASUREMENT_DESCRIPTION: Hydrolysis in pH 7.4 HEPES buffer
Assay type: physicochemical
TEST_SETTINGS: pH 7.4 HEPES buffer, 37 °C; mean ± SEM; esters n=3; Val-3-APG n=1 (up to 800 h)
MEASURED_QUANTITY: t1/2 (estimated half-life) (h)

>  <MOLECULE>
CC(C)[C@H](N)C(=O)OCc1ccccc1.Cl [Val-OBn, L-valine benzyl ester hydrochloride]

>  <MEASURED_QUANTITY>
t1/2 (estimated half-life)

>  <VALUE_OBSERVED>
14.3

$$$$
>  <MOLECULE>
CC(C)C(N)C(=O)OCc1cccc(NC(=N)N)c1 (stereo not drawn)

>  <MEASURED_QUANTITY>
t1/2 (estimated half-life)

>  <VALUE_OBSERVED>
8.115

$$$$
>  <MOLECULE>
Cl.N[C@@H](Cc1ccccc1)C(=O)OCc1ccccc1

>  <MEASURED_QUANTITY>
t1/2 (estimated half-life)

>  <VALUE_OBSERVED>
6.083

$$$$
>  <MOLECULE>
Br.CC(C)[C@H](N)C(=O)OCc1ccc([N+](=O)[O-])cc1

>  <MEASURED_QUANTITY>
t1/2 (estimated half-life)

>  <VALUE_OBSERVED>
6.872

$$$$
>  <MOLECULE>
N=C(N)Nc1cccc(COC(=O)[C@@H](N)Cc2ccccc2)c1

>  <MEASURED_QUANTITY>
t1/2 (estimated half-life)

>  <VALUE_OBSERVED>
3.833

$$$$
>  <MOLECULE>
CCOC(=O)[C@@H](N)Cc1ccccc1.Cl

>  <MEASURED_QUANTITY>
t1/2 (estimated half-life)

>  <VALUE_OBSERVED>
16.773

$$$$
